pKi: −log10 of the molar value.
The entries below pair compounds with pKi values for Mu-type opioid receptor (Homo sapiens, UniProt P35372), as found in several publications.

[
  {
    "Compound": "O=C(Nc1cccc(F)c1)N1CCC(c2ccccc2)(c2nccn2Cc2ccccc2)CC1",
    "Sign": "<",
    "pKi": 5.33
  },
  {
    "Compound": "COc1ccc(CN(C)CCCNC(=O)c2ccco2)cc1OC",
    "Sign": "<",
    "pKi": 5.00
  },
  {
    "Compound": "NC(=O)c1ccc(Oc2ccc3c(c2)CCCN(CCCC2CCCCC2)C3)nc1",
    "Sign": "=",
    "pKi": 7.38
  },
  {
    "Compound": "CCNC(=O)c1ccc(C(=C2CC3CCC(C2)N3Cc2cccs2)c2ccc(OC)cc2)cc1",
    "Sign": "=",
    "pKi": 7.87
  },
  {
    "Compound": "COC(=O)C(Cc1cccc(OC)c1I)NC(=O)CNCc1ccccc1 (stereo not given)",
    "Sign": "<",
    "pKi": 5.00
  },
  {
    "Compound": "CCCC(C)CN1CCC(c2cccc(C(N)=O)c2)(c2ncc(C(=O)N(CC)CC)cn2)CC1 (stereo not given)",
    "Sign": "<",
    "pKi": 6.05
  },
  {
    "Compound": "CCOC(=O)N1CCC(c2ccccc2)(c2nccn2Cc2cccc(F)c2)CC1",
    "Sign": "<",
    "pKi": 6.33
  },
  {
    "Compound": "CCNC(=O)c1ccc(C(=C2CC3CCC(C2)N3CCc2ccccc2)c2ccc(O)cc2)cc1",
    "Sign": "=",
    "pKi": 7.66
  },
  {
    "Compound": "COc1ccc(N2CCN(Cc3c[nH]c4ncccc34)CC2)cc1",
    "Sign": "<",
    "pKi": 5.00
  },
  {
    "Compound": "CCCCCC(c1ccccc1)N1CC[C@H]1[C@H](N)c1cccc(Cl)c1 (stereo not given in full)",
    "Sign": "=",
    "pKi": 5.71
  }
]

* * *

The entries below pair compounds with Ki values for Mu-type opioid receptor (Homo sapiens), as found in several publications.
Readout kind: Ki (nM)

[
  {
    "Compound": "Cc1ccc([C@H](N)[C@@H]2CCN2C(c2ccccc2)c2ccccc2)cc1",
    "Data value": 488
  },
  {
    "Compound": "O=C(Nc1ccc(F)cc1)N1CCC(c2ccccc2)(c2nccn2Cc2ccccc2)CC1",
    "Data value": 1210
  },
  {
    "Compound": "N[C@H](c1cccc(Cl)c1)[C@@H]1CCN1C(c1cccc(F)c1)c1cccc(F)c1",
    "Data value": 4320
  },
  {
    "Compound": "NC(=O)c1ccc(Oc2ccc3c(c2)CN(Cc2ccccc2)CC3)nc1",
    "Data value": 232
  },
  {
    "Compound": "CCNC(=O)c1ccc(C(=C2CC3CCC(C2)N3CC=C(C)C)c2cccc(O)c2)cc1",
    "Data value": 2.52
  },
  {
    "Compound": "CC1(C)CN(Cc2ccc(Oc3ccc(C(N)=O)cn3)cc2)[C@H]1c1ccccc1",
    "Data value": 107
  },
  {
    "Compound": "COc1nc(NCCCN2CCOCC2)nc(OC)c1NC(=O)c1ccc(Oc2cc3c(cc2C)CCC3(C)C)o1",
    "Data value": 1400
  },
  {
    "Compound": "COC1Cc2ccccc2[C@]2(CC[C@@H](N(C)Cc3ccccc3)CC2)O1 (some centres undefined)",
    "Data value": 18
  },
  {
    "Compound": "CCNC(=O)c1ccc(C(=C2CC3CCC(C2)N3Cc2ccccn2)c2ccccc2)cc1",
    "Data value": 17
  }
]

* * *

pKi: −log10 of the molar value.
The entries below pair compounds with pKi values for Mu-type opioid receptor (Homo sapiens, UniProt P35372), as found in several publications.
Readout kind: pKi

[
  {
    "Compound": "O=C1OC2(CCN(CCc3ccccc3)CC2)CN1c1ccccc1",
    "Tested system": "Mu-type opioid receptor (Homo sapiens, UniProt P35372)",
    "Sign": "=",
    "Data value": 6.40
  },
  {
    "Compound": "CC1OC2(CCN(CCc3cccc(F)c3)CC2)CN(c2ccccc2)C1=O (stereo unspecified)",
    "Tested system": "Mu-type opioid receptor (Homo sapiens, UniProt P35372)",
    "Sign": "=",
    "Data value": 8.00
  },
  {
    "Compound": "C=Cc1ccc(N2CCN(Cc3c[nH]c4ncccc34)CC2)cc1",
    "Tested system": "Mu-type opioid receptor (Homo sapiens, UniProt P35372)",
    "Sign": "<",
    "Data value": 5.00
  },
  {
    "Compound": "COc1cccc(C)c1C(=O)C1=CCCN2CCC[C@@H]12",
    "Tested system": "Mu-type opioid receptor (Homo sapiens, UniProt P35372)",
    "Sign": "<",
    "Data value": 3.70
  },
  {
    "Compound": "Cc1ccnc(C2(O)C3CCC2CN(C(c2ccccc2Cl)c2ccccc2Cl)C3)c1 (stereo unspecified)",
    "Tested system": "Mu-type opioid receptor (Homo sapiens, UniProt P35372)",
    "Sign": "=",
    "Data value": 5.45
  },
  {
    "Compound": "CC(C)(C)C(=O)N1CCC(c2ccccc2)(c2nccn2Cc2ccccc2)CC1",
    "Tested system": "Mu-type opioid receptor (Homo sapiens, UniProt P35372)",
    "Sign": "<",
    "Data value": 5.33
  }
]

* * *

The entries below pair molecules with log10 of Ki values for Mu-type opioid receptor (Homo sapiens, UniProt P35372), as found in several publications.
Readout kind: log10 of Ki (log10 of the value in nM)

[
  {
    "Molecule": "NC(=O)[C@]1(Cc2ccc(Cl)cc2)C[C@H]2CC[C@@H](C1)N2C(c1ccccc1Cl)c1ccccc1Cl",
    "log10 of Ki": 2.45
  },
  {
    "Molecule": "CCCCN1CCCc2cc(Oc3ccc(C(N)=O)cn3)ccc2C1",
    "log10 of Ki": 1.32
  },
  {
    "Molecule": "c1ccc2c(c1)CC(CN1CCC3(CCc4ccccc43)CC1)CO2 (configuration not stated)",
    "log10 of Ki": 1.69
  },
  {
    "Molecule": "CCCCC(c1ccccc1)N1CC[C@H]1[C@@H](N)c1cccc(Cl)c1 (some centres not stated)",
    "log10 of Ki": 3.35
  },
  {
    "Molecule": "O=C(NCCCCN1CCO[C@@H]2c3cc(O)ccc3OC[C@@H]21)c1cc2ccccc2[nH]1 (relative stereo)",
    "log10 of Ki": 4.09
  },
  {
    "Molecule": "O=C(Nc1ccccc1F)N1CCC(c2ccccc2)(c2nccn2Cc2ccccc2)CC1",
    "log10 of Ki": 3.40
  },
  {
    "Molecule": "CCCCCN(CCc1ccccc1)CCc1cccc(O)c1",
    "log10 of Ki": 2.51
  },
  {
    "Molecule": "O=C(NCCCCN1CCO[C@H]2c3cc(O)ccc3OC[C@@H]21)c1cc2ccccc2[nH]1 (relative stereo)",
    "log10 of Ki": 4.09
  },
  {
    "Molecule": "CCNC(=O)c1ccc(C(=C2CC3CCC(C2)N3CCc2ccccc2)c2cccc(OC)c2)cc1",
    "log10 of Ki": -0.18
  },
  {
    "Molecule": "Cc1ccc2nc(NC(=O)c3ccc(Cl)cc3)nc(NC3CCCCC3NC(=N)N)c2c1 (racemic)",
    "log10 of Ki": 2.49
  },
  {
    "Molecule": "CNC(=O)c1ccc(C(=C2CC3CCC(C2)N3CCc2ccccc2)c2ccccc2)cc1",
    "log10 of Ki": -0.85
  },
  {
    "Molecule": "NC(=O)C[C@]1(Cc2ccc(F)cc2)C[C@H]2CC[C@@H](C1)N2C(c1ccccc1Cl)c1ccccc1Cl",
    "log10 of Ki": 2.28
  },
  {
    "Molecule": "Cc1cccc(O)c1C(=O)C1=CCCCN2CCC[C@@H]12",
    "log10 of Ki": 4.11
  },
  {
    "Molecule": "CCc1cc(Cl)c(OC)c(N2CCN(Cc3cn(CCC(C(=O)N(C)C)(c4ccccc4)c4ccccc4)nn3)CC2)c1",
    "log10 of Ki": 3.38
  },
  {
    "Molecule": "CCNC(=O)c1ccc(C(=C2CC3CCC(C2)N3Cc2[nH]cnc2C)c2ccccc2)cc1",
    "log10 of Ki": 1.79
  },
  {
    "Molecule": "CCC(CC)CN1CCCc2cc(Oc3ccc(C(N)=O)cn3)ccc2C1",
    "log10 of Ki": 1.62
  },
  {
    "Molecule": "CCC(c1ccccc1)N1CC[C@H]1[C@@H](N)c1cccc(Cl)c1 (some centres not stated)",
    "log10 of Ki": 3.91
  },
  {
    "Molecule": "N[C@@H](c1cccc(F)c1)[C@@H]1CCN1C(c1ccccc1)c1ccccc1",
    "log10 of Ki": 3.25
  },
  {
    "Molecule": "CN(C)C(=O)C(CCN1C[C@H](O)C[C@H]1C(=O)NCCCCN1CCN(c2cccc(C(F)(F)F)n2)CC1)(c1ccccc1)c1ccccc1",
    "log10 of Ki": 2.90
  },
  {
    "Molecule": "c1ccc2c(c1)CCO[C@@]21CCC[C@H](NCC2CCCCC2)C1 (relative stereo)",
    "log10 of Ki": 2.84
  },
  {
    "Molecule": "Cc1ccc(C(c2ccccc2Cl)N2C3CCC2CC(O)(CCCO)C3)c(Cl)c1 (configuration not stated)",
    "log10 of Ki": 2.49
  },
  {
    "Molecule": "CC(=O)N[C@H](Cc1c[nH]c2cc(F)ccc12)C(=O)N[C@@H](Cc1ccccc1)C(=O)NCC(N)=O",
    "log10 of Ki": 0.76
  },
  {
    "Molecule": "CCNC(=O)c1ccc(C(=C2CC3CCC(C2)N3CCc2c[nH]c3ccccc23)c2ccccc2)cc1",
    "log10 of Ki": 1.92
  },
  {
    "Molecule": "NC(=O)C1(C2CCCCN2)C[C@H]2CC[C@H](C1)N2C(c1ccccc1Cl)c1ccccc1Cl (relative stereo)",
    "log10 of Ki": 2.68
  },
  {
    "Molecule": "NC(=O)c1ccc(Oc2ccc3c(c2)CCCN(CCN2CCOCC2)C3)nc1",
    "log10 of Ki": 2.11
  }
]
